FYI, the data here is from ChEMBL document CHEMBL5046296.

- Assay target: Glycogen synthase kinase-3 alpha (Homo sapiens, UniProt P49840)
- Sequence (P49840 whole entry): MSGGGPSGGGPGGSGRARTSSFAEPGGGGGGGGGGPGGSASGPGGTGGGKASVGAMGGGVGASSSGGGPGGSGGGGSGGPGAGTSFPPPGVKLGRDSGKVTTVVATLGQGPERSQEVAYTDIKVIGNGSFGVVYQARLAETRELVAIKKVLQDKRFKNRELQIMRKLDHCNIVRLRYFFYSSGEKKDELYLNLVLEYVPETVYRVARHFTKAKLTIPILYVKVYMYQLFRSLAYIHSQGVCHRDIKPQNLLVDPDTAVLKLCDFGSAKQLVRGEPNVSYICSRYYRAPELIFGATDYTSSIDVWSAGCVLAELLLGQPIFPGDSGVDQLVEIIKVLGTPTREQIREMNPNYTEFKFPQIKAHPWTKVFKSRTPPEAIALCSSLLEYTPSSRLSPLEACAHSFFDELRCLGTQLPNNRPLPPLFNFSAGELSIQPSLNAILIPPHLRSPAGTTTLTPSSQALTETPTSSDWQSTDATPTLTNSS
Quantity measured: IC50 (µM)
Field format: number, assumed µM, no unit text.

Which measured IC50 value corresponds to `CC(C)C[C@](C)(N)COc1ccc(-c2ccnc(C(F)F)c2)cc1C(F)(F)F` ?
1.7

----------
- Measurement notes: AUC (infinity) in dog at 3 mg/kg, po
- Assay type: ADME, organism-based, Canis lupus familiaris
- Parameters: route oral, time infinity, dose 3 mg/kg
- Particulars: in vivo
Quantity measured: AUC(0-inf)

Which measured AUC(0-inf) value corresponds to `CC(C)C[C@](C)(N)COc1ccc(-c2ccnc(C(F)F)c2)nc1C(F)F` ?
1630 ng·h/mL
